target: D(2) dopamine receptor (Homo sapiens, UniProt P14416)
Sequence (P14416 whole entry): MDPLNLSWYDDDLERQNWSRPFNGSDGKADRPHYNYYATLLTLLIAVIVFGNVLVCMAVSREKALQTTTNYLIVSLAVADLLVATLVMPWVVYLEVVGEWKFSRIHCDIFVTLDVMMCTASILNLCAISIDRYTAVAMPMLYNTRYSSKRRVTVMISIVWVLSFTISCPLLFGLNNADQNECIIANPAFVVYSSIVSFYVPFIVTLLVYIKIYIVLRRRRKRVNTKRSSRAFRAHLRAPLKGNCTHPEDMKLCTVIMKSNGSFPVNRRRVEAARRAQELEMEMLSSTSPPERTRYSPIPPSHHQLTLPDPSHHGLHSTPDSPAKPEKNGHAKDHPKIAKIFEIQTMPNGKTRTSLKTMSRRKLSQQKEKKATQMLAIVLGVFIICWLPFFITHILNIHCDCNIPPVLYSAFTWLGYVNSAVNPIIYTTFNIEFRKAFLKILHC
pKi: −log10 of the molar value.
Parameter threshold = 6. Response is T when pKi meets or exceeds it, else F.

N#Cc1ccc2c(c1)CCN(CC[C@H]1CC[C@H](NC(=O)c3ccc4ccc(O)nc4c3)CC1)CC2 :: T
N#Cc1ccc2c(c1)CCN(CC[C@H]1CC[C@H](NC(=O)c3cccc4ncccc34)CC1)CC2 :: F
COc1cccc(/C=C/C(=O)N[C@H]2CC[C@H](CCN3CCc4ccc(C#N)cc4CC3)CC2)c1 :: T
CC(=O)Nc1cccc(/C=C/C(=O)N[C@H]2CC[C@H](CCN3CCc4ccc(C#N)cc4CC3)CC2)c1F :: T
CC(=O)c1cccc(/C=C/C(=O)N[C@H]2CC[C@H](CCN3CCc4ccc(C#N)cc4CC3)CC2)c1 :: T
N#Cc1ccc2c(c1)CCN(CC[C@H]1CC[C@H](NC(=O)c3ccc4ccccc4c3)CC1)CC2 :: F
CC(=O)Nc1cccc(/C=C/C(=O)N[C@H]2CC[C@H](CCN3CCc4ccc(C#N)cc4CC3)CC2)c1 :: T
